- STUDY_SYSTEM: purified human HDAC6 (Homo sapiens, UniProt Q9UBN7)
- Construct: purchased BPS Bioscience 5006
- Sequence (Q9UBN7 1-1215): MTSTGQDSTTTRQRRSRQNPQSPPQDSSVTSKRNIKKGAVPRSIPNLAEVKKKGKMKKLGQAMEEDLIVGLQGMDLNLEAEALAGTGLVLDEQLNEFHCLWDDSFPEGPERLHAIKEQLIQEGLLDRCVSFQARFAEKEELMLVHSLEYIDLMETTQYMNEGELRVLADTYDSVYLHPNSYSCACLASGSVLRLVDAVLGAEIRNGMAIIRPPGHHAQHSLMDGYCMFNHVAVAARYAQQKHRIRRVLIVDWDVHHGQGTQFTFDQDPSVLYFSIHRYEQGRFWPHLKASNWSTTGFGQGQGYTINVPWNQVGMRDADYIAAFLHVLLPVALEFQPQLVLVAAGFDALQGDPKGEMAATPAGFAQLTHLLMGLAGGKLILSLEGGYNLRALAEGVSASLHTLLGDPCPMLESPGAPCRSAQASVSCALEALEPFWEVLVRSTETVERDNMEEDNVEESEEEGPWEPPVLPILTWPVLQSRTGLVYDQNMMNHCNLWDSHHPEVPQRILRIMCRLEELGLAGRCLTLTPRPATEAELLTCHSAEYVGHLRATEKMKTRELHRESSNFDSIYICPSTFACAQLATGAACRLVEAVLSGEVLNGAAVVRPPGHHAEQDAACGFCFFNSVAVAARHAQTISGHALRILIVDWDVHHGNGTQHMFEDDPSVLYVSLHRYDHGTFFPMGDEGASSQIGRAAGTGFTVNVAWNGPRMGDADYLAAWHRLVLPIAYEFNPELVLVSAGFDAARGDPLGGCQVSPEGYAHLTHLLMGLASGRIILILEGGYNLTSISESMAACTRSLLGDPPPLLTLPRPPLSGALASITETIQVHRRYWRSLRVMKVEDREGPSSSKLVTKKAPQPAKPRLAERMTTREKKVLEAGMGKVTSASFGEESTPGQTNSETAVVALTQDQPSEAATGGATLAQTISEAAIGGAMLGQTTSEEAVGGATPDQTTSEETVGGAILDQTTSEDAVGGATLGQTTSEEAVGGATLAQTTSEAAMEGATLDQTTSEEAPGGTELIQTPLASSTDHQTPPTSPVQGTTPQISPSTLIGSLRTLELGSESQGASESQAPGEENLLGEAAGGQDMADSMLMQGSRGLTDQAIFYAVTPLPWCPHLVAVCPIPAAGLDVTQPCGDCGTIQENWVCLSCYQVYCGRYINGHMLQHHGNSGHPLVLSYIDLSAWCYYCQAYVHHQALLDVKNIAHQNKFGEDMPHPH
- ASSAY_NAME: HDAC6 Enzyme Assay
- Format: biochemical
- SETUP_CONDITIONS: HDAC6 inhibition at a compound concentration of 0.412 μM; read-out: Percent Inhibition at 0.412 μM
- Method: To measure the inhibition of HDAC6 activity, purified human HDAC6 (BPS Bioscience; Cat. No. 5006) is incubated with substrate Ac-Arg-Gly-Lys(Ac)-AMC peptide (Bachem Biosciences; Cat. No. I-1925) for 1 hour at 30° C. in the presence of test compounds or vehicle DMSO control. […] Concentration response curves are generated by calculating the fluorescence increase in test compound-treated samples relative to DMSO-treated controls, and enzyme inhibition (IC50) values are determined from those curves.
RECORDED_METRIC: inhibition at 0.412 µM (%)

Here's what some known entries look like.
O=C(NO)c1ccc2c(c1)CC(Oc1ccncc1)CC2 (centres unmarked) [Compound I-86] :: 91
O=C(NO)c1ccc2c(c1)C1CCC2N1C(=O)C12CC3CC(CC(C3)C1)C2 (centres unmarked) [Compound I-205] :: 17

A: O=C(NO)c1ccc2c(c1)CCC(c1cccc(C(F)(F)F)c1)C2 (centres unmarked) [Compound I-113]
B: O=C(NO)c1ccc2c(c1)CCC(NC(=O)c1cnn(-c3ccccc3)c1)C2 (centres unmarked) [Compound I-58]
From the items above, decide which of A and B has the lower inhibition at 0.412 µM reading. Respond using the label that marks the chosen record.
A
(A: 53%, B: 85%)
